# TEST NAME: Clearance in fasted Sprague-Dawley rat at 10 mg/kg, po administered as single dose measured up to 24 hrs post dose by LC-PDA-MS/MS analysis
# Assay type: ADME, organism-based
# CONDITION: in vivo
MEASUREMENT TYPE: CL/F (mL/min/kg)

>>> print(df.to_string())
                                smiles_repr  measurement_type  readout_number
0  O=C(O)CS(=O)(=O)c1ccc(OCc2cccc(-c3ccccc3Cl)c2)cc1              CL/F            2.57
1  Cc1cc(OCCCS(C)(=O)=O)cc(C)c1-c1cccc(COc2ccc(CCC(=O)O)cc2)c1              CL/F             118

---

Documented half-life across a set of compounds
# TEST NAME: Half life in fasted Sprague-Dawley rat at 10 mg/kg, po administered as single dose measured up to 24 hrs post dose by LC-PDA-MS/MS analysis
# Format: ADME, organism-based
# CONDITION: in vivo
MEASUREMENT TYPE: half-life (h)

>>> df
                                smiles_repr  measurement_type  unit_spec  readout_number
0  Cc1cc(OCCCS(C)(=O)=O)cc(C)c1-c1cccc(COc2ccc(CCC(=O)O)cc2)c1         half-life          h            1.09
1  O=C(O)CS(=O)(=O)c1ccc(OCc2cccc(-c3ccccc3Cl)c2)cc1         half-life          h            5.57

---

Documented Activity across a set of compounds
# Tested on: HepG2
# TEST NAME: Apoptotic cytotoxicity in human HepG2 cells assessed as caspase-3/7 activity at 30 uM after 24 hrs by caspase-glo-3/7 assay relative to staurosporine
# Type: cell-based
# CONDITION: hepg2, 24 h
MEASUREMENT TYPE: Activity (%)

>>> print(df.to_string())
                                smiles_repr  target_desc  measurement_type  readout_number
0  CCCOc1cc(C)c(-c2cccc(COc3ccc(S(=O)(=O)CC(=O)O)cc3)c2)c(C)c1        HepG2          Activity            29.5
1  Cc1ccc(-c2cccc(COc3ccc(S(=O)(=O)CC(=O)O)cc3)c2)c(Cl)c1        HepG2          Activity            17.6
2  CCOc1cc(C)c(-c2cccc(COc3ccc(S(=O)(=O)CC(=O)O)cc3)c2)c(C)c1        HepG2          Activity             6.7
3  O=C(O)CS(=O)(=O)c1ccc(OCc2cccc(-c3ccccc3Cl)c2)cc1        HepG2          Activity            -1.6
4  Cc1cc(OCCCS(C)(=O)=O)cc(C)c1-c1cccc(COc2ccc(CCC(=O)O)cc2)c1        HepG2          Activity            46.8
5  O=C(O)CS(=O)(=O)c1ccc(OCc2cccc(-c3ccccc3)c2)cc1        HepG2          Activity            -1.9
6  Cc1cccc(C)c1-c1cccc(COc2ccc(S(=O)(=O)CC(=O)O)cc2)c1        HepG2          Activity            -1.5
